melting point values by entry

Examples with their reported melting point follow.
[[record]]
smiles_entry = "CN1CCC(c2c[nH]c3ccc(OS(=O)(=O)c4ccccc4F)cc23)CC1"
recorded_metric = "melting point"
result = "180 to 182 °C"

[[record]]
smiles_entry = "Cc1ccc(S(=O)(=O)Oc2ccc3[nH]cc(C4CCN(C)CC4)c3c2)cc1"
recorded_metric = "melting point"
result = "186 to 187 °C"

[[record]]
smiles_entry = "CCCS(=O)(=O)n1cc(C2CCN(C)CC2)c2cc(OS(=O)(=O)c3ccccc3)ccc21.O=C(O)C(=O)O"
recorded_metric = "melting point"
result = "139 to 142 °C"


*Q* Consider the molecule shown here: CN1CCC(c2cn(CCc3ccccc3)c3ccc(OS(=O)(=O)c4c(F)cccc4F)cc23)CC1.Cl What is its recorded melting point?
*A* 209 to 212 °C

Cited source for all entries: patent US7230011B2
